// reported pEC50 per item
System: HIV-1 Strain B (M046I, I050V)
assayOverview: microbe, parasite or virus in culture
Assay type: cell-based
measurementContext: clinical isolate Strain B; read-out: B EC50
pEC50: −log10 of the molar value.
propertyName: pEC50

compound	targetEntity	resultNumber
COc1ccc(-c2ccc(C[C@H](NC(=O)O[C@H]3CO[C@H]4OCC[C@H]43)[C@@H](O)C[C@@H](Cc3ccccc3F)C(=O)N[C@H]3c4cc(Cl)ccc4OC[C@H]3O)cc2)cn1 [Compound 72]	HIV-1 Strain B (M046I, I050V)	9.10
COC(=O)N[C@H](C(=O)N[C@@H](Cc1ccc(-c2cnc(OC(C)C)cn2)cc1)[C@@H](O)C[C@@H](Cc1cccc(F)c1)C(=O)N[C@H]1c2cc(Cl)ccc2OC[C@H]1O)C(C)(C)C [Compound 46]	HIV-1 Strain B (M046I, I050V)	8.25
COC(=O)NC(C(=O)NC(Cc1ccc(-c2cnc(N(C)C)cn2)cc1)C(O)CC(Cc1ccccc1F)C(=O)NC1c2cc(Cl)ccc2OCC1O)C(C)(C)C (stereo not shown) [Compound 22]	HIV-1 Strain B (M046I, I050V)	8.59
COC(=O)N[C@H](C(=O)N[C@@H](Cc1ccc(-c2ccc(OC)nc2)cc1)[C@@H](O)C[C@@H](Cc1cccc(OC(F)(F)F)c1)C(=O)N[C@H]1c2ccccc2OC[C@H]1O)C(C)(C)C [Compound 41]	HIV-1 Strain B (M046I, I050V)	8.92

###

assayOverview: General toxicity assay on mock-infected MT4 cells with CMV-EGFP reporter (CC50)
Assay type: cell-based
measurementContext: human; mock-infected MT4 cells with CMV-EGFP reporter; read-out: TOX-MT4CMV (CC50)
Documented CC50 across a set of compounds

compound	CC50
COC(=O)N[C@H](C(=O)N[C@@H](Cc1ccc(-c2cc(C)nc(C)c2)cc1)[C@@H](O)C[C@@H](Cc1cccc(Cl)c1)C(=O)N[C@H]1c2ccccc2OC[C@H]1O)C(C)(C)C [Compound 4]	> 32 µM
COC(=O)N[C@H](C(=O)N[C@@H](Cc1ccc(-c2ccc(OC)nc2)cc1)[C@@H](O)C[C@@H](Cc1ccccc1F)C(=O)N[C@H]1c2ccsc2CC[C@H]1O)C(C)(C)C [Compound 93]	> 32 µM
CNC(=O)[C@@H](NC(=O)[C@H](Cc1ccccc1F)C[C@H](O)[C@H](Cc1ccc(-c2ccc(N(C)C)nc2)cc1)NC(=O)[C@@H](NC(=O)OC)C(C)(C)C)C(C)(C)C [Compound 90]	> 32 µM

###

Test system: HIV-1 Strain B (M046I, I050V)
assayOverview: microbe, parasite or virus in culture
Format: cell-based
measurementContext: clinical isolate Strain B; read-out: B EC50
hey, just use 1 if measured EC50 is less than 2 nM, otherwise -1

mol	cat
COC(=O)N[C@H](C(=O)N[C@@H](Cc1ccc(-c2ccc(OC)nc2)cc1)[C@@H](O)C[C@@H](Cc1cccc(OC)c1)C(=O)N[C@H]1c2cc(Cl)ccc2OC[C@H]1O)C(C)(C)C	-1
COC(=O)N[C@H](C(=O)N[C@@H](Cc1ccc(-c2ccc(N(C)C)nc2)cc1)[C@@H](O)C[C@@H](Cc1ccccc1F)C(=O)N[C@H]1c2cc(Cl)cc(F)c2OC[C@H]1O)C(C)(C)C	1
COC(=O)N[C@H](C(=O)N[C@@H](Cc1ccc(-c2cnc(N(C)C)nc2)cc1)[C@@H](O)C[C@@H](Cc1cccc(F)c1)C(=O)N[C@H]1c2cc(F)ccc2OC[C@H]1O)C(C)(C)C	1
CNC(=O)[C@@H](NC(=O)[C@H](Cc1ccccc1F)C[C@H](O)[C@H](Cc1ccc(-c2ccc(N(C)C)nc2)cc1)NC(=O)O[C@H]1CO[C@H]2OCC[C@H]21)C(C)(C)C	-1
CN(C)c1ccc(-c2ccc(C[C@H](NC(=O)O[C@H]3CO[C@H]4OCC[C@H]43)[C@@H](O)C[C@@H](Cc3ccccc3F)C(=O)N[C@H]3c4cc(F)ccc4OC[C@H]3O)cc2)cn1	1
COC(=O)N[C@H](C(=O)N[C@@H](Cc1ccc(-c2ccnc(C(F)(F)F)c2)cc1)[C@@H](O)C[C@@H](Cc1ccccc1F)C(=O)N[C@H]1c2cc(Cl)ccc2OC[C@H]1O)C(C)(C)C	-1
COc1ccc(-c2ccc(C[C@H](NC(=O)O[C@H]3CO[C@H]4OCC[C@H]43)[C@@H](O)C[C@@H](Cc3ccccc3Cl)C(=O)N[C@H]3c4cc(F)ccc4OC[C@H]3O)cc2)cn1	1
COC(=O)N[C@H](C(=O)N[C@@H](Cc1ccc(-c2cnc(N(C)C)nc2)cc1)[C@@H](O)C[C@@H](Cc1ccccc1Cl)C(=O)N[C@H]1c2cc(F)ccc2OC[C@H]1O)C(C)(C)C	1
COC(=O)N[C@H](C(=O)N[C@@H](Cc1ccc(-c2cccc(OC)n2)cc1)[C@@H](O)C[C@@H](Cc1ccccc1F)C(=O)N[C@H]1c2cc(Cl)ccc2OC[C@H]1O)C(C)(C)C	-1
